Taken from patent US11357817B2.

Test system: P. falciparum Dd2
Experiment: P. falciparum Dd2 asexual blood stage SYBR Green I compound sensitivity assay
Type: cell-based, Plasmodium falciparum
Conditions: Plasmodium falciparum, DD2, 72 h, asexual blood stage, 72 hour SYBR green assay
pIC50: −log10 of the molar value.
Assay Metric: pIC50

Compound	pIC50
CCCCCC(=O)N[C@@H](Cc1ccc(NC(=O)OC(C)(C)C)cc1)C(=O)N[C@@H](CCCC)C(=O)N[C@@H](CC(C)C)C(=O)[C@@]1(C)CO1	8.26

[A] CCCCCC(=O)N[C@@H](Cc1ccc(NC(=O)OC(C)(C)C)cc1)C(=O)N[C@@H](CCCC)C(=O)N[C@@H](Cc1ccccc1)C(=O)[C@@]1(C)CO1
[B] CCCCCC(=O)NC(Cc1ccc(N)cc1)C(=O)N[C@@H](Cc1ccc(N)cc1)C(=O)N[C@@H](CC(C)C)C(=O)[C@@]1(C)CO1 (stereo in doubt)
[C] CCCCCC(=O)N[C@@H](Cc1c[nH]c2ccccc12)C(=O)N[C@@H](CCCC)C(=O)N[C@@H](Cc1ccccc1)C(=O)[C@@]1(C)CO1
Task: Order the 3 compounds from highest to lowest pIC50. // ordering of labels required in reply
Result: A, C, B
